Test: Cytotoxicity, PrestoBlue cell viability assay in BV-2 cells
Assay type: cell-based, mouse
Settings: mouse, BV-2 microglial cells, 50 µM (log C -4.3); 24 h; read-out: immunotoxicity in BV-2 cells, % of cell viability
As shown below, each of these molecules has a reported viability at 24 h, 50 µM value.
Answer with a number only, understood to be in %.

{"Molecule": "NC(=O)Nc1cc(-c2ccnc(NC(=O)C3CCC3)c2)sc1C(N)=O", "viability at 24 h, 50 µM [%]": 96}
{"Molecule": "COc1nc(-c2ccnc(NC(=O)C3CC3)c2)sc1C(N)=O [II, reference compound]", "viability at 24 h, 50 µM [%]": 27}
{"Molecule": "NC(=O)Nc1cc(-c2cccc(NC(=O)C3CC3)c2)sc1C(N)=O", "viability at 24 h, 50 µM [%]": 52}

[in] Recorded viability at 24 h, 50 µM of CC1(C)NC(=O)c2sc(-c3ccnc(NC(=O)C4CC4)c3)cc2N1 , please.
[out] 2

[in] // repeat for O=C1NC2(CCOC2)Nc2cc(-c3ccnc(NC(=O)C4CC4)c3)sc21 (stereo not shown) and report
[out] 5

[in] // repeat for O=C1NC2(CCCC2)Nc2cc(-c3ccnc(NC(=O)C4CC4)c3)sc21 and report
[out] 3

[in] // repeat for CC(C)C(=O)Nc1cc(-c2cc(NC(N)=O)c(C(N)=O)s2)ccn1 and report
[out] 20
